molecular target: HsCdk2/Cyc A (Homo sapiens); assay: ADP-Glo kinase assay; format: biochemical, Homo sapiens (Hs); details: mean n = 2, % of maximum activity of DMSO control, read-out: % Residual activity at 1 μM CDK2
MEASURED_PARAMETER: remaining activity at 1 µM (%)

Record excerpt, results attached:
COc1ccc2[nH]c3c(=O)[nH]c4ccccc4c3c2c1 : 73
O=c1[nH]c2ccccc2c2c1[nH]c1ccccc12 : 100
COc1ccc2[nH]c(=O)c3[nH]c4ccc(F)cc4c3c2c1 : 97
COc1ccc2c(c1)c1c3cc(N(C)C)ccc3[nH]c(=O)c1n2C : 100
COc1ccc2[nH]c3c(=O)[nH]c4cc(O)ccc4c3c2c1 : 35
COc1ccc2[nH]c3c(=O)[nH]c4ccc(O)cc4c3c2c1 : 38
COc1ccc2c(c1)[nH]c1c(=O)[nH]c3ccc(OC)cc3c12 : 74
COc1ccc2[nH]c3c(=O)[nH]c4ccc(C(F)(F)F)cc4c3c2c1 : 76

1 = COc1ccc2c(c1)[nH]c1c(=O)[nH]c3ccccc3c12
2 = COc1ccc2[nH]c3c(=O)[nH]c4ccc(NC(C)=O)cc4c3c2c1
[ask] I'd appreciate it if you could identify which of 1 and 2 has the greater remaining activity at 1 µM. Returns: label corresponding to the selected item.
[reply] 2
(2: 100%, 1: 62%)

1 = COc1ccc2[nH]c3c(=O)[nH]c4cc(OC)c(OC)cc4c3c2c1
2 = O=c1[nH]c2ccc(O)cc2c2c1[nH]c1ccccc12
[ask] I'd appreciate it if you could identify which of 1 and 2 has the greater remaining activity at 1 µM. Returns: label corresponding to the selected item.
[reply] 2
(2: 84%, 1: 58%)

1 = COc1ccc2c(c1)[nH]c(=O)c1[nH]c3ccc(OC)cc3c12
2 = COc1ccc2c(c1)c1c3cc(O)ccc3[nH]c(=O)c1n2C
[ask] Looking at recorded values for remaining activity at 1 µM, does 1 or 2 come in lower? Returns: label corresponding to the selected item.
[reply] 2

----------
biological target: HsPIM1 (Homo sapiens, UniProt P11309); test: ADP-Glo kinase assay; type: biochemical, Homo sapiens (Hs); details: mean n = 2, % of maximum activity of DMSO control, read-out: % Residual activity at 1 μM PIM1
Sequence (P11309 whole entry): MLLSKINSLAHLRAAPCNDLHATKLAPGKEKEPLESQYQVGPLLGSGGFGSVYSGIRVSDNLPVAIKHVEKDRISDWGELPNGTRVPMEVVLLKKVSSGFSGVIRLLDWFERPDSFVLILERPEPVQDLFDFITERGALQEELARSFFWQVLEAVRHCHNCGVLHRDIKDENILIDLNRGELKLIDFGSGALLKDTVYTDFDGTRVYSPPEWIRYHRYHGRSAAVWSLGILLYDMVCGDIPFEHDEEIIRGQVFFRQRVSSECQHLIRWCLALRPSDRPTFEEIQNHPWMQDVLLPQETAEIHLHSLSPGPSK
MEASURED_PARAMETER: remaining activity at 1 µM (%)

O=c1[nH]c2cc(O)ccc2c2c1[nH]c1ccccc12 : 37
COc1ccc2[nH]c(=O)c3[nH]c4ccc(OC)cc4c3c2c1 : 36
COc1ccc2c(c1)[nH]c1c(=O)[nH]c3ccc(OC)cc3c12 : 34

A = COc1ccc2c(c1)c1c3cc(C(F)(F)F)ccc3[nH]c(=O)c1n2C
B = COc1ccc2[nH]c3c(=O)[nH]c4cc(O)ccc4c3c2c1
[ask] Looking at recorded values for remaining activity at 1 µM, does A or B come in lower? Returns: label corresponding to the selected item.
[reply] B
(B: 9%, A: 42%)

----------
pIC50: −log10 of the molar value.
A set of compounds tested on HsHaspin (Homo sapiens), with measured pIC50:
MEASURED_PARAMETER: pIC50

Record excerpt, results attached:
O=c1[nH]c2ccc(O)cc2c2c1[nH]c1ccc(F)cc12 [Compound 61] : 8.30
COc1ccc2[nH]c(=O)c3[nH]c4ccc(F)cc4c3c2c1 [Compound 60] : 7.72
COc1ccc2[nH]c3c(=O)[nH]c4cc(OC)c(OC)cc4c3c2c1 [Compound 52] : 7.80

A = O=c1[nH]c2ccc(O)cc2c2c1[nH]c1ccccc12 [Compound 48]
B = COc1ccc2c(c1)c1c3cc(O)ccc3[nH]c(=O)c1n2C [Compound 62]
[ask] Looking at recorded values for pIC50, does A or B come in lower? Returns: label corresponding to the selected item.
[reply] B

A = COc1ccc2c(c1)[nH]c(=O)c1[nH]c3ccc(OC)cc3c12 [Compound 50]
B = COc1ccc2c(c1)[nH]c1c(=O)[nH]c3ccc(OC)cc3c12 [Compound 59]
[ask] I'd appreciate it if you could identify which of A and B has the greater pIC50. Returns: label corresponding to the selected item.
[reply] A
(A: 8.15, B: 7.52)
